IL23R Reporter Assay IC50 values, listed per item
# target.of.assay: T1, interleukin-23 receptor (IL-23R), Q5VWK5
# T1 chain: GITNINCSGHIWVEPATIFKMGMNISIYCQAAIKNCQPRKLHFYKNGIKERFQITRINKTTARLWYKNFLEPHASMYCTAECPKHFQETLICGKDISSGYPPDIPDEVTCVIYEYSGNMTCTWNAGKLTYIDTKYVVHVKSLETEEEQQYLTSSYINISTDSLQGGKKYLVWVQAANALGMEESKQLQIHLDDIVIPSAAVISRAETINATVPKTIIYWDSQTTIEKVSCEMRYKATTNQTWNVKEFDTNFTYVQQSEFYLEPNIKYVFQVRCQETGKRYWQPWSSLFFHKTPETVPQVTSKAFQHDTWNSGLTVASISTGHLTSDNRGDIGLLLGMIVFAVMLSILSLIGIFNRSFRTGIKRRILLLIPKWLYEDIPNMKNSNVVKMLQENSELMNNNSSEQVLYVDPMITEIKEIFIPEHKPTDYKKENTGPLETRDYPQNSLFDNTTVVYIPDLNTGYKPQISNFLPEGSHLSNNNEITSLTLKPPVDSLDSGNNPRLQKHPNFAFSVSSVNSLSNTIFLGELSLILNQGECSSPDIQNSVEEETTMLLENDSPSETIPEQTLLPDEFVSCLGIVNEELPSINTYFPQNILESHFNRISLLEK
# assay.comment: cell-based or functional assay
Starred links: 1 amine or outer side, 2 acyl side, 3 side chain; linkers in the order of their positions; H or OH if unused. Positions of bridges follow the written chain, without caps; N, C: chain ends. Non-standard residues stand in square brackets, D forms with d. No end group written: not given here. X1 = 3‑(7-(3-acetamidophenyl)-1H-indol-3-yl)‑2‑aminopropanoic acid, CC(=O)Nc1cccc(-c2cccc3c(CC(N[*:1])C(=O)[*:2])c[nH]c23)c1; Trp(7-(3-AcNH-Ph)) = CC(=O)Nc1cccc(-c2cccc3c(C[C@H](N)C(=O)O)c[nH]c23)c1; 2Nal(6-OH) = N[C@@H](Cc1ccc2cc(O)ccc2c1)C(=O)O; Trp(7-Me) = Cc1cccc2c(C[C@H](N)C(=O)O)c[nH]c12; d(hLys(Me3)) = C[N+](C)(C)CCCCC[C@@H](N)C(=O)O; dLys(Me3) = C[N+](C)(C)CCCC[C@@H](N)C(=O)O; 3Pal = N[C@@H](Cc1cccnc1)C(=O)O; Lipidated = not defined here; Pen = CC(C)(S)[C@H](N)C(=O)O; Thp = NC1(C(=O)O)CCOCC1; Sar = CNCC(=O)O

>  <binder>
R[Pen]NT[Trp(7-(3-AcNH-Ph))]K(Ac)[Pen]Y[2Nal(6-OH)][Thp]EN[3Pal][Sar] (not fully specified (bridges); ends and bridges not checked) [SEQ ID NO: 65]

>  <endpoint.label>
IL23R Reporter Assay IC50

>  <measured.result>
< 0.01 µM

$$$$
>  <binder>
[d(hLys(Me3))][Pen]NT[Trp(7-Me)]K(Lipidated)[Pen][2‑amino‑3‑(4-(2-aminoethoxy)phenyl)propanoic acid][2‑amino‑3‑(6-hydroxynaphthalen-2-yl)propanoic acid][Thp]K(Ac)N[3Pal][Sar] (disulfide 2-7 (inferred); ends not checked; also: K6 lipidated lysine, lipid not given here) [SEQ ID NO: 187]

>  <endpoint.label>
IL23R Reporter Assay IC50

>  <measured.result>
> 0.1 µM

$$$$

# input for lookup
Fill in the blank: the reported IL23R Reporter Assay IC50 of [dLys(Me3)][Pen]NT[X1]K(Ac)[Pen][5‑(4-(2-amino-2-carboxyethyl)phenoxy)‑N,N,N‑trimethylpentan‑1‑aminium][2‑amino‑3‑(6-hydroxynaphthalen-2-yl)propanoic acid][Thp]EN[3Pal][Sar] (ends and bridges not checked) [SEQ ID NO: 37] is ____.
< 0.01 µM
